Hey, just so you know, these numbers are from BindingDB's records for doi:10.1016/j.bioorg.2014.05.003.

target: Alpha-glucosidase MAL12 (Saccharomyces cerevisiae (strain ATCC 204508 / S288c)); test: Glucosidase assay; settings: pH 6.8; 37 °C
Sequence (P53341 whole entry): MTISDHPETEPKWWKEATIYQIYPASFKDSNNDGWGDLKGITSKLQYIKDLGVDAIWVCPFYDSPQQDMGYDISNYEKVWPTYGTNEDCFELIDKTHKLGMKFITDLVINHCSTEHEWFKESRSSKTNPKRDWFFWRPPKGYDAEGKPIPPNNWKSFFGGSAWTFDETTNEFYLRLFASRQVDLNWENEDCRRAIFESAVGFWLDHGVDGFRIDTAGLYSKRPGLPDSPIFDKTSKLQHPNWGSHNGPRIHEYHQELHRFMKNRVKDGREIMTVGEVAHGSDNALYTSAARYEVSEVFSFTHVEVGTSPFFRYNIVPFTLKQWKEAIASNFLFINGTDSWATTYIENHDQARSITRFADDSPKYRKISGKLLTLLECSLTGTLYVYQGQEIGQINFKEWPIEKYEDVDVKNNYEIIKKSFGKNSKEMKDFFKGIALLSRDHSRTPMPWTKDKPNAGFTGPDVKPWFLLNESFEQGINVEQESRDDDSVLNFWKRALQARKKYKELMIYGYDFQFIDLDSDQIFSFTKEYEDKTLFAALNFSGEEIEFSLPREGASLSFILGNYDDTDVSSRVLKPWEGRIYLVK
Reported property: IC50 (µM)

Example results:
CCOC(=O)C1C(C)=NC(=S)NC1c1ccc(C)cc1 (stereo unspecified): 125
CCOC(=O)C1C(C)=NC(=O)NC1c1ccc(Cl)cc1 (stereo unspecified): 213
CCOC(=O)C1C(C)=NC(=O)NC1c1ccccc1 (stereo unspecified): 143

(A) CCOC(=O)C1C(C)=NC(=O)NC1c1ccc(C)cc1 (stereo unspecified)
(B) CCOC(=O)C1C(C)=NC(=O)NC1c1ccc(O)c(OC)c1 (stereo unspecified)
// pick larger IC50 from pair: A vs B // output: label of the selected item
B
